Hey, just so you know, these numbers are from paper PMC11855827.

# Test system: C. elegans
# Conditions: Table S2, C. elegans SS assay, 110 μM, 0 h, averages of 4 data points
Measured Attribute: Percentage of motility inhibition 0 h (%)
One number for each entry, in %.

For every listed record, write down its Percentage of motility inhibition 0 h.
1. C[C@H]1CC[C@@]2(O)C(C)(C)[C@@H]3CC[C@@]2(C)[C@H]1C3 [Patchouli alcohol]
2. CC1(C)CC[C@]2(C(=O)O)CC[C@]3(C)C(=CC[C@@H]4[C@@]5(C)CC[C@@H](O)C(C)(C)[C@@H]5CC[C@]43C)[C@@H]2C1 [3-Epioleanolic acid]
3. CC(C)c1ccc2c(c1)CC[C@H]1[C@](C)(CN)CCC[C@]21C.Cl [Leelamine (hydrochloride)]
4. CC[C@H]1OC(=O)C[C@@H](O)[C@H](C)[C@@H](O[C@@H]2O[C@H](C)[C@@H](O)[C@H](N(C)C)[C@H]2O)[C@@H](CCN2C[C@H](C)C[C@H](C)C2)C[C@@H](C)C(=O)/C=C/C(C)=C/[C@@H]1CO[C@@H]1O[C@H](C)[C@@H](O)[C@@H](OC)[C@H]1OC.O=P(O)(O)O [Tilmicosin (phosphate)]
5. CC1(C)CC[C@]2(C(=O)O)CCC3=C([C@@H](CCl)C[C@@H]4[C@@]5(C)C[C@H](O)[C@H](O)[C@@](C)(C(=O)O)[C@@H]5CC[C@@]34C)[C@@H]2C1 [Tenuigenin]

[24, 29, 22, 6, 11]
